assayed_system: human CA-XII (Homo sapiens)
Construct: purchased Creative BioMart CA12-261H
Sequence (O43570 25-354): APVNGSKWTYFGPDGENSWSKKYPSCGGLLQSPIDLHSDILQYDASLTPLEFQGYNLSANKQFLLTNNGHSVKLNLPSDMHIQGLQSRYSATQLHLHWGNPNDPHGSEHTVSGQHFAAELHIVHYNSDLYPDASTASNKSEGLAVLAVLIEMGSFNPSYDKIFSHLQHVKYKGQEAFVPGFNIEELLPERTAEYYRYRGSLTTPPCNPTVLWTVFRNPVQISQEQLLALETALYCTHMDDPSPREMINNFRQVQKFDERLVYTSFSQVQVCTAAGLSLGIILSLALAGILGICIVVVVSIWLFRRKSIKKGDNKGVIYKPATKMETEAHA
assay_protocol: Surface Plasmon Resonance (SPR) binding kinetics to recombinant human CA-XII (Biacore 8K, single-cycle kinetics, 1:1 binding model)
test_context: read-out: CAXII KD, Chelated Metal: Lu-175, 25° C., pH 7.4
Recorded measurements of Kd, one per entry

Check out these entries, answers already filled in.
compound	endpoint_result
CC(CCC(=O)N[C@@H](CC(=O)N[C@@H](CC(=O)N1CCN(C(=O)CN2CCN(CC(=O)O)CCN(CC(=O)O)CCN(CC(=O)O)CC2)CC1CCCCn1cc(CCCC(=O)Nc2nnc(S(N)(=O)=O)s2)nn1)C(=O)O)C(=O)O)(c1ccc(O)cc1)c1ccc(O)cc1.[Lu+3] (stereo partly shown)	2.5 to 10 nM
CC(C)(CCCC(=O)N1CCC(C(N)=O)(C(=O)NCC(=O)N2CCN(C(=O)CN3CCN(CC(=O)O)CCN(CC(=O)O)CCN(CC(=O)O)CC3)C[C@H]2C(=O)NCCn2cc(C34CC(C(=O)Nc5nnc(S(N)(=O)=O)s5)(C3)C4)nn2)CC1)c1ccc(O)cc1.[Lu+3]	> 10 nM
CC(CCC(=O)N[C@@H](CC(=O)N[C@@H](CC(=O)N[C@@H](CCCCN1CCN(c2ccc(C(=O)Nc3nnc(S(N)(=O)=O)s3)cc2)CC1)C(=O)NCCOCCOCCNC(=O)CN1CCN(CC(=O)O)CCN(CC(=O)O)CCN(CC(=O)O)CC1)C(=O)O)C(=O)O)(c1ccc(O)cc1)c1ccc(O)cc1.[Lu+3]	> 10 nM

Next:
The compound NS(=O)(=O)c1nnc(NC(=O)C23CC(c4cn(CCNC(=O)[C@@H]5CN(C(=O)CN6CCN(CC(=O)O)CCN(CC(=O)O)CCN(CC(=O)O)CC6)CCN5C(=O)C[C@H](Nc5ncc(C(=O)NCc6ccc(S(F)(F)(F)(F)F)cc6)cn5)C(=O)O)nn4)(C2)C3)s1.[Lu+3] , tested on human CA-XII (Homo sapiens), showed Kd of > 10 nM

###

Recorded measurements of Kd, one per entry
assayed_system: human CA-XII (Homo sapiens)
Construct: purchased Creative BioMart CA12-261H
assay_protocol: Surface Plasmon Resonance (SPR) binding kinetics to recombinant human CA-XII (Biacore 8K, single-cycle kinetics, 1:1 binding model)
test_context: read-out: CAXII KD, Chelated Metal: Lu-175, 25° C., pH 7.4

Check out these entries, answers already filled in.
structure_smiles_string	assayed_system	Kd
CC(CCC(=O)N[C@@H](CC(=O)N[C@@H](CC(=O)N[C@@H](CCCCn1cc(C23CC(C(=O)Nc4nnc(S(N)(=O)=O)s4)(C2)C3)nn1)C(=O)NCCOCCOCCNC(=O)CN1CCN(CC(=O)O)CCN(CC(=O)O)CCN(CC(=O)O)CC1)C(=O)O)C(=O)O)(c1ccc(O)cc1)c1ccc(O)cc1.[Lu+3]	human CA-XII (Homo sapiens)	> 10 nM
NS(=O)(=O)c1nnc(NC(=O)C23CC(c4cn(CCNC(=O)[C@@H]5CN(C(=O)CN6CCN(CC(=O)O)CCN(CC(=O)O)CCN(CC(=O)O)CC6)CCN5C(=O)C[C@H](NC(=O)C[C@H](NC(=O)c5cccc(C6CC6)c5)C(=O)O)C(=O)O)nn4)(C2)C3)s1.[Lu+3]	human CA-XII (Homo sapiens)	2.5 to 10 nM

Next:
For CC(CCC(=O)N[C@@H](CC(=O)N[C@@H](CC(=O)N1CCN(C(=O)CN2CCN(CC(=O)O)CCN(CC(=O)O)CCN(CC(=O)O)CC2)C[C@H]1C(=O)NCCn1cc(C23CC(C(=O)Nc4nnc(S(N)(=O)=O)s4)(C2)C3)nn1)C(=O)O)C(=O)O)(c1ccc(O)cc1)c1ccc(O)cc1.[Lu+3] the molecule record lists Kd as 2.5 to 10 nM
